This collection of values is drawn from patent US9493446B2.

- system.tested: orexin-1 (Homo sapiens (Human), UniProt O43613)
- Sequence (O43613 whole entry): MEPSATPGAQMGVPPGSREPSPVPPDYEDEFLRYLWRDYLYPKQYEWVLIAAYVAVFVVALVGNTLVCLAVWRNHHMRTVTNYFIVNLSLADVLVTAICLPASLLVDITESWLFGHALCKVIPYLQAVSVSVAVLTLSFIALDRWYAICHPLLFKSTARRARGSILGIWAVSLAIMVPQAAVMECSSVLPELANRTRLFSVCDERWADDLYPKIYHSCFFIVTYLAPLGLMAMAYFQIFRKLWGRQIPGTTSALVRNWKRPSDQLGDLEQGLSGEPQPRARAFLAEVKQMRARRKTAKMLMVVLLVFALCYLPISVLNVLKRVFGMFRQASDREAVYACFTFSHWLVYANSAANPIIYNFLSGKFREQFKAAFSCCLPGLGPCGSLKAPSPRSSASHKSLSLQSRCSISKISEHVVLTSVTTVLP
- assay.protocol: Intracellular calcium measurement (FLIPR), CHO cells expressing human orexin-1 receptor, 3 nM orexin-A
- Assay type: cell-based
- particulars: CHO cells expressing human orexin-1 receptor, FLIPR, 3 nM orexin-A; geometric mean if determined several times; read-out: IC50 OX1
readout.type: IC50
Answer with the figure and its unit, nothing else.

Qu. Query for orexin-1 (Homo sapiens (Human), UniProt O43613): what IC50 does the record show for CCOc1ncccc1-c1noc([C@@H]2CCCN2C(=O)c2ccc(C)c(C)c2-n2nccn2)n1 [compound 273] ?
Ans. 148 nM

Qu. Now this one: Cc1ccc(-n2nccn2)c(C(=O)N2CCC[C@H]2c2nnc(-c3cccc(Cl)c3)o2)c1 [Example 455]
Ans. 835 nM

Qu. Now this one: O=C(c1ccc(Cl)cc1-n1nccn1)N1CCC[C@H]1c1nc(-c2ccccc2OC(F)(F)F)no1 [compound 172]
Ans. 56 nM

Qu. Now this one: COc1ccccc1-c1noc([C@@H]2CCCN2C(=O)c2ccccc2-n2nccn2)n1 [compound 227]
Ans. 852 nM

Qu. Now this one: Cc1ccc(C(=O)N2CCC[C@H]2c2nnc(-c3ccccc3OC(F)(F)F)[nH]2)c(-n2nccn2)c1 [compound 501]
Ans. 27 nM

Qu. Now this one: Cc1ccc(-c2ncco2)c(C(=O)N2CCC[C@H]2c2nc(-c3ccccc3OC(F)(F)F)no2)c1 [compound 175]
Ans. 14 nM

Qu. Now this one: O=C(c1ccccc1-c1ccccc1)N1CCC[C@H]1c1nnc(-c2ccccc2OC(F)(F)F)[nH]1 [compound 508]
Ans. 239 nM

Qu. Now this one: Cc1ccc(-n2nccn2)c(C(=O)N2CCC[C@H]2c2noc(-c3cnc4sccn34)n2)c1 [compound 313]
Ans. 661 nM

Qu. Now this one: COc1c(F)cccc1-c1noc([C@@H]2CCCN2C(=O)c2cc(F)ccc2-n2nccn2)n1 [compound 200]
Ans. 307 nM

* * *

- system.tested: human orexin-2 receptor (Homo sapiens (Human))
- Sequence (O43614 whole entry): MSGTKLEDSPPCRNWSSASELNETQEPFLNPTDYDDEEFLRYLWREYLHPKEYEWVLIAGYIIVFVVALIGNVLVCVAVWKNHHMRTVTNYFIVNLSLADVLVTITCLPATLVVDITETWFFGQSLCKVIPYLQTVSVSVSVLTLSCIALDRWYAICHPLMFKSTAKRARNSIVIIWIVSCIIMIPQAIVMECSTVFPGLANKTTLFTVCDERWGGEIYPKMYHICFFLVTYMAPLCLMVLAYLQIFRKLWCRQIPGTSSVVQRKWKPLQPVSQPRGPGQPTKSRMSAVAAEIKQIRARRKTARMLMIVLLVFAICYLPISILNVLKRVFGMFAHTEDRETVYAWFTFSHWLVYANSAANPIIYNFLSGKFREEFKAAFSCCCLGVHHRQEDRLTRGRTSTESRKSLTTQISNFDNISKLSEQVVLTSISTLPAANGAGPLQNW
- assay.protocol: Intracellular calcium measurement (FLIPR), CHO cells expressing human orexin-2 receptor, 3 nM orexin-A
- Type: cell-based
- particulars: CHO cells expressing human orexin-2 receptor, FLIPR, 3 nM orexin-A; geometric mean if determined several times; read-out: IC50 OX2
Record form. Attribute: log10 IC50. Fill in for each entry.
Give log10 of IC50, with IC50 taken in nM.

Qu. Can you look up the measured log10 IC50 of O=C(c1ncoc1-c1ccccc1)N1CCC[C@H]1c1nnc(-c2ccccc2OC(F)(F)F)[nH]1 for me?
Ans. 3.48

Qu. Now this one: Cc1ccc(C)c(-c2nc([C@@H]3CCCN3C(=O)c3cc(C)c(C)cc3-n3nccn3)no2)c1
Ans. 0.30

Qu. Now this one: Cc1ccc(-n2nccn2)c(C(=O)N2CCC[C@H]2c2cc(-c3ccccc3OC(F)(F)F)n[nH]2)c1
Ans. 2.16

Qu. Now this one: CCOc1ncccc1-c1noc([C@@H]2CCCN2C(=O)c2cc(C)cc(C)c2-n2nccn2)n1
Ans. 1.32

Qu. Now this one: Cc1ccc(-n2nccn2)c(C(=O)N2CCC[C@H]2c2nc(-c3ccnc(C)c3)no2)c1
Ans. 2.96

Qu. Now this one: Cc1ccc(-n2nccn2)c(C(=O)N2CCC[C@H]2c2nc(-c3cccc(F)c3C)no2)c1
Ans. 0.70

Qu. Now this one: Cc1c(Cl)cccc1-c1noc([C@@H]2CCCN2C(=O)c2cc(F)c(F)cc2-n2nccn2)n1
Ans. 2.20

Qu. Now this one: CCOc1c(F)cccc1-c1noc([C@@H]2CCCN2C(=O)c2cc(OC)c(Cl)cc2-n2nccn2)n1
Ans. 0.85

Qu. Now this one: Cc1nc(C(=O)N2CCC[C@H]2c2nnc(-c3ccccc3OC(F)(F)F)[nH]2)c(-c2ccccc2)s1
Ans. 2.06

Qu. Now this one: COc1c(F)cccc1-c1noc([C@@H]2CCCN2C(=O)c2cc(F)cc(C)c2-n2nccn2)n1
Ans. 2.75

Qu. Now this one: COc1c(Cl)cccc1-c1nc([C@@H]2CCCN2C(=O)c2cc(C)ccc2-n2nccn2)no1
Ans. 0.60

Qu. Now this one: CCOc1ncccc1-c1noc([C@@H]2CCCN2C(=O)c2cc(OC)ccc2-n2nccn2)n1
Ans. 1.20

Qu. Now this one: COc1cc(C(=O)N2CCC[C@H]2c2nc(-c3cccc(F)c3OC)no2)c(-c2ncccn2)cc1C
Ans. 0.78

Qu. Now this one: CCOc1ccccc1-c1noc([C@@H]2CCCN2C(=O)c2ccccc2-n2nccn2)n1
Ans. 1.80

Qu. Now this one: COc1cc(C)cc(-c2nc([C@@H]3CCCN3C(=O)c3cc(C)c(C)cc3-n3nccn3)no2)c1
Ans. 0.60

Qu. Now this one: CCOc1ncccc1-c1noc([C@@H]2CCCN2C(=O)c2cc(C)ccc2-c2ncco2)n1
Ans. 0.78

Qu. Now this one: O=C(c1cc(OC(F)(F)F)ccc1-n1nccn1)N1CCC[C@H]1c1nc(-c2ccccc2OC(F)(F)F)no1
Ans. 2.53

Qu. Now this one: Cc1ccc(-n2nccn2)c(C(=O)N2CCC[C@H]2c2nnc(-c3cccc(F)c3C)[nH]2)c1
Ans. 1.43

Qu. Now this one: O=C(c1ccc(C(F)(F)F)cc1-n1nccn1)N1CCC[C@H]1c1nc(-c2ccccc2OC(F)(F)F)no1
Ans. 2.06

Qu. Now this one: Cc1ccc(-n2nccn2)c(C(=O)N2CCC[C@H]2c2nc(-c3cccc(Cl)c3C)no2)c1
Ans. 0.85

Qu. Now this one: CCOc1ncccc1-c1nnc([C@@H]2CCCN2C(=O)c2cc(OC)c(C)cc2-n2nccn2)[nH]1
Ans. 1.23

Qu. Now this one: Cc1ccc(C(=O)N2CCC[C@@]2(C)c2nnc(-c3ccccc3OC(F)(F)F)[nH]2)c(-c2ccccc2)c1
Ans. 1.81

Qu. Now this one: Cc1ccc(-n2nccn2)c(C(=O)N2CCC[C@H]2c2ncc(-c3ccccc3)o2)c1
Ans. 2.67

Qu. Now this one: COc1ccccc1-c1noc([C@@H]2CCCN2C(=O)c2cc(C)c(C)cc2-n2nccn2)n1
Ans. 1.18

Qu. Now this one: Cc1ccc(-n2nccn2)c(C(=O)N2CCC[C@H]2c2nc(-c3cccnc3C)no2)c1
Ans. 1.46

Qu. Now this one: COc1cc(C(=O)N2CCC[C@H]2c2nc(-c3ccccc3OC(F)F)no2)c(-n2nccn2)cc1C
Ans. 0.70

Qu. Now this one: Cc1ccc(-n2nccn2)c(C(=O)N2CCC[C@H]2c2nc(-c3ccccc3Cl)no2)n1
Ans. 3.16

Qu. Now this one: COc1cc(C(=O)N2CCC[C@H]2c2nnc(-c3cccc(F)c3OC)[nH]2)c(-n2nccn2)cc1C
Ans. 0.78

Qu. Now this one: COc1cc(C(=O)N2CCC[C@H]2c2nc(-c3cccc(Cl)c3C)no2)c(-c2ncccn2)cc1C
Ans. 1.08

Qu. Now this one: COc1ccc(C)c(-c2nc([C@@H]3CCCN3C(=O)c3cc(C)c(C)cc3-n3nccn3)no2)c1
Ans. 0.60
